Data provenance: patent US20250270339A1

system-under-test: T1, Full length Mouse TfR on CHO cells (mouse, UniProt Q62351 1-763)
T1 construct: also called CHO + muTfR
T1 sequence (Q62351 whole entry): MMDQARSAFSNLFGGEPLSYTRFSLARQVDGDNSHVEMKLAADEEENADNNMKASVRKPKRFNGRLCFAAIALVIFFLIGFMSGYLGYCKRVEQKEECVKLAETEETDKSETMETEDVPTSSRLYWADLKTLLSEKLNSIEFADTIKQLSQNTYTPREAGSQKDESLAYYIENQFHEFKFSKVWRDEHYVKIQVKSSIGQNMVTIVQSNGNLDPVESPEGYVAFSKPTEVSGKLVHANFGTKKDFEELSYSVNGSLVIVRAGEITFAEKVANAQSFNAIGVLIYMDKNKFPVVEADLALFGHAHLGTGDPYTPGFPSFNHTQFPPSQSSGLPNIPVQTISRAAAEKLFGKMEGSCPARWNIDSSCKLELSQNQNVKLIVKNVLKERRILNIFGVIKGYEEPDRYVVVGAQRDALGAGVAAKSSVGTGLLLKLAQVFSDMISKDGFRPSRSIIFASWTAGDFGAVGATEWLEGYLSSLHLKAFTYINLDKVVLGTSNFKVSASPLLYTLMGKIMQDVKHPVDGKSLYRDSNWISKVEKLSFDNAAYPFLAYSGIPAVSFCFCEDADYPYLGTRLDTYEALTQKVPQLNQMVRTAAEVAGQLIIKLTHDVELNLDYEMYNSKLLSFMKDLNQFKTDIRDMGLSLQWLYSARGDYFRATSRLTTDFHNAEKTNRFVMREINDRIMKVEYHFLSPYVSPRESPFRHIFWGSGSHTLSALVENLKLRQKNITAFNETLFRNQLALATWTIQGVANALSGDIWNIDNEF
assay-notes: FACS, CHO+muTfR
measured-endpoint: binding result

TfR26 (mouse hybridoma antibody) (antibody, V domains shown, mouse IgG in hybridoma supernatant) VH: QVQLHQSGPELVKPGASVKMSCKASGYTFTNYYIHWVKQRPGQGLEWIGWIYPGDGVTHYNEKFKGKTTLTADKSSSTAYMLLSSLTSEDSAIYFCARDKDVPGMDYWGQGTSVTVSS VL: DIVMTQSPSSLTVTSGEKVTMSCKSSQSLLNSENQKNYLTWYQQKPGQPPKLLIYWASTRESGVPDRFTGSGSGPDFTLTISSVQAEDLAVYYCQNDYSYPLTFGAGTKLELK | no binding
TfR31 (mouse hybridoma antibody) (antibody, V domains shown, mouse IgG in hybridoma supernatant) VH: DVQLQESGPGLVKPSQSLSLTCTVTGYSITSDYAWNWIRQFPGNKLEWMGYISYSGRTSYNPSLKSRISFTRDTSKNQFFLQLNSVTTEDTATYYCAGWGYRYLEDYWGQGTSVTVSS VL: QIVLTQSPAIMSASPGEKVTMTCSASSSISSMHWYQLKPGTSPKKWIYDTSKLASGVPARFSGSGSGTSYSLTISSMEAEDAATYYCHQRSSYPWTFGGGTKLEIK | no binding
TfR8 (mouse hybridoma antibody) (antibody, V domains shown, mouse IgG in hybridoma supernatant) VH: QVQLQQSGAELVRPGTSVKVSCKASGYAFTNYLIEWVKQRPGQGLEWIGVINPGSGGTNYNEKFKGKATLTADKSSSTAYMQLSSLTSDDSAVYFCARRSPYFDYWGQGTTLTVSS VL: SIVMTQTPKFLLVSAGDRVTITCKASQSVSNDVAWYQQKPGQSPKLLIYYASNRYTGVPDRFTGSGYGTDFTFTISTVQAEDLAVYFCHQDYISPTFGGGTKLEIK | no binding
